- experiment_notes: Dynamic vapor sorption (DVS) with XRPD of the post-DVS sample
- Assay type: physicochemical
- setup_conditions: 25° C., 5 to 95% RH
readout: hygroscopicity based on DVS data

>>> val("COc1cc(CCN)c(OC)cc1Br.O=C(O)CC(O)(CC(=O)O)C(=O)O [Citrate (Form 2), 2C-B Citrate]")
"slightly hygroscopic"
>>> val("COc1cc(CCN)c(OC)cc1Br.O=S(=O)(O)c1ccccc1 [Besylate (Form 1), 2C-B besylate]")
"slightly hygroscopic"
>>> val("COc1cc(CCN)c(OC)cc1Br.O=C(O)c1cc(O)ccc1O [Gentisate, 2C-B gentisate]")
"non-hygroscopic"
>>> val("COc1cc(CCN)c(OC)cc1Br.O=S(=O)(O)O [Sulfate, 2C-B sulfate]")
"slightly hygroscopic"
>>> val("COc1cc(CCN)c(OC)cc1Br.O=C(O)C(O)C(O)C(=O)O [Tartrate (Form 1)]")
"non-hygroscopic"
>>> val("COc1cc(CCN)c(OC)cc1Br.Cl [Form A]")
"slightly hygroscopic"
